Assign pKd to each entry below.
biological target: human ApoC3 (human); test: SPR pH 5.5
Sequence (chain, as listed by the source): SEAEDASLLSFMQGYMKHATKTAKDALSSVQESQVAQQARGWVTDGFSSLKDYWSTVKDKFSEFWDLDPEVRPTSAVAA
One number for each entry, as −log10 of the molar value.

Recorded results for 3 binders are shown here.
binder: 5E5VH12_VLWT scFv-Fc (antibody, V domains shown) VH: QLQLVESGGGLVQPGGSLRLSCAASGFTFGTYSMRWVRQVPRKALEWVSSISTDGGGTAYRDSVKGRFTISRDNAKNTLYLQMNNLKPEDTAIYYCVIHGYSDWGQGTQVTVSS VL: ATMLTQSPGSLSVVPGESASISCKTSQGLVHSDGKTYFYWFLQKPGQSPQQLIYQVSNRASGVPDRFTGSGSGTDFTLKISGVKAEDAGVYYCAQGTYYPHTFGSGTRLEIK
test-readout: pKd
data-value: 7.80
--
binder: 5E5VH5_VLWT scFv-Fc (antibody, V domains shown) VH: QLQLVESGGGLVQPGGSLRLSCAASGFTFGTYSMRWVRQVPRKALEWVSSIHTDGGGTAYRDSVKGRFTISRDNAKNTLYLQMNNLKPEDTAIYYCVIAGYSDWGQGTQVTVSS VL: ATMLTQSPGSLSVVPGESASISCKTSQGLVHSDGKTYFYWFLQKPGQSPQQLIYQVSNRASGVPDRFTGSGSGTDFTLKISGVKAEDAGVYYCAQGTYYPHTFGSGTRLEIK
test-readout: pKd
data-value: 7.96
--
binder: 5E5VHWT_VL8 scFv-Fc (antibody, V domains shown) VH: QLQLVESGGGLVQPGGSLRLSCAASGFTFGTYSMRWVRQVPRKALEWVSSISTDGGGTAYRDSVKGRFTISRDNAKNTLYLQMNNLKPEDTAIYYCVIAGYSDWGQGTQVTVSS VL: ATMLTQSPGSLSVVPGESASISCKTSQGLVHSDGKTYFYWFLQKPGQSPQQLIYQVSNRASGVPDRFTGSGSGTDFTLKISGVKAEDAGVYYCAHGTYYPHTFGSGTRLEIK
test-readout: pKd
data-value: 8.37

Q) Return reported pKd; argument: 5E5WT scFv-Fc (antibody, V domains shown) VH: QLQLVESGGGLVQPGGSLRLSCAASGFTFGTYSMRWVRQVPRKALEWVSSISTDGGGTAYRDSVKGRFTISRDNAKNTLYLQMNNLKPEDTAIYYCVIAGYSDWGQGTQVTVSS VL: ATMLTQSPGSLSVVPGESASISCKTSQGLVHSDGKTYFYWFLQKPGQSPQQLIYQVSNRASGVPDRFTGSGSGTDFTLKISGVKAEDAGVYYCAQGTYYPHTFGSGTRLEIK
A) 10.22
